# assaySummary: chemical genetic growth profiling, strain panel (AID 1159580);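 further: tested at 20 µM; growth read once vehicle control cultures reached saturation at 30 °C; 1 = growth at the plate median or of vehicle wells; lower values mean less growth of the strain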
# testConditions: S. cerevisiae deletion strains, growth OD, locus YER016W, strain bim1, stronger effect = lower value
In all, about 5,500 compounds went through this assay and about 2,000 (36%) were called active. Not shown: some 18% with an inconclusive outcome. Some of the results follow.
recordedMetric: normalized growth
The response must contain the number and no unit.

molecule: CC1OC(O[C@H]2/C=C/C=C/C=C/C=C/C=C/C=C/C=C/[C@H](C)[C@@H](O)[C@@H](C)[C@H](C)OC(=O)CC(O)CC(O)CCC(O)C(O)CC(O)C[C@]3(O)C[C@H](O)C(C(=O)O)C(C2)O3)C(O)[C@H](N)C1O (stereo not given in full)
normalized growth: 0.819
--
molecule: CC(=O)O[C@@H]1CC2C(C)(C)C(=O)C3OC3[C@]2(C)C2CC[C@@]3(C)[C@H](c4ccoc4)OC(=O)C4OC43[C@@]21C (stereo not given in full)
normalized growth: 0.987
--
molecule: CC1[C@H](C)OC(=O)CC(O)CC(O)CC(O)CCC(O)C(O)C[C@]2(O)CC(O)C(C(=O)O)C(CC(OC3O[C@H](C)[C@@H](O)[C@H](N)[C@@H]3O)/C=C/C=C/C=C/C=C/CC/C=C/C=C/[C@H](C)[C@H]1O)O2 (stereo not given in full)
normalized growth: 0.961
--
molecule: CC1(C)C(=O)[C@@H]2O[C@@H]2[C@@]2(C)C1C[C@@H](O)[C@]1(C)C2CC[C@@]2(C)[C@H](c3ccoc3)OC(=O)C3OC321 (stereo not given in full)
normalized growth: 0.995

// returns reported normalized growth for input CC1C/C=C/C=C/C=C/C=C/C(O[C@@H]2O[C@H](C)[C@@H](O)[C@H](N)[C@@H]2O)CC2OC(O)(CC(O)CC3OC3/C=C/C(=O)O1)CC(O)C2C(=O)O (stereo not given in full)
0.978

====

# assaySummary: chemical genetic growth profiling, strain panel (AID 1159580);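 further: tested at 20 µM; growth read once vehicle control cultures reached saturation at 30 °C; 1 = growth at the plate median or of vehicle wells; lower values mean less growth of the strain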
# testConditions: S. cerevisiae deletion strains, growth OD, locus YOR106W, strain vam3
Hit rate of the full screen: of about 5,500 compounds, about 2,000 (36%) were called active. Inconclusive results (about 18%) are left out. Cut-off read from the data, not from the text of the source: active = normalized growth mostly below about 0.91 (no sharp cut-off); inconclusive = no clear call, values can overlap the other calls; inactive = mostly above about 0.92. The list shows a part of the results.
Valid outcomes are listed here; reply with one: active, inactive

Before answering, review these 4 worked examples.
molecule: CCCn1c(=O)c2[nH]c(C3CCCC3)nc2n(CCC)c1=O
labelValue: inactive
//
molecule: CC(=O)OC/C=C(\C)CC/C=C(\C)CC/C=C(\C)CC/C=C(\C)CC/C=C(\C)CC/C=C(\C)CC/C=C(\C)CC/C=C(\C)CCC=C(C)C
labelValue: inactive
//
molecule: O=c1[nH]c(=O)n(C2C[C@H](O)[C@@H](CO)O2)cc1C(F)(F)F (some centres not stated)
labelValue: inactive
//
molecule: CN(C/C=C/C#CC(C)(C)C)Cc1cccc2ccccc12
labelValue: active

Status in this test for `Cc1nnc(NS(=O)(=O)c2ccc(N)cc2)s1` ?
inactive

Status in this test for `O=NN(CCCl)C(=O)NCCCl` ?
active

Status in this test for Clc1ccc(COC(Cn2ccnc2)c2ccc(Cl)cc2Cl)cc1 (configuration not stated) ?
active

====

# assaySummary: chemical genetic growth profiling, strain panel (AID 1159580);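 further: tested at 20 µM; growth read once vehicle control cultures reached saturation at 30 °C; 1 = growth at the plate median or of vehicle wells; lower values mean less growth of the strain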
# testConditions: S. cerevisiae deletion strains, growth OD, locus YBR231C, strain swc5, stronger effect = lower value
Among all 5,500 compounds or so, about 2,000 (36%) were called active. Roughly 18% stayed inconclusive and do not appear here. The list shows a part of the results.
One threshold, 1, splits the recorded normalized growth values: lower ones are class 1, equal or higher ones are class 0.

Before answering, review these 5 worked examples.
compound: NC(C(=O)O)C(O)C(=O)O (stereo not drawn)
labelValue: class 0
--
compound: O=c1cccc2n1CC1CC2CN2CCCC[C@@H]12 (stereo partly drawn)
labelValue: class 1
--
compound: O=C(O)[C@@H](S)[C@@H](S)C(=O)O
labelValue: class 1
--
compound: COc1ccc2c(c1)OCC(Cc1ccc(OC)c(OC(C)=O)c1)C2=O (stereo not drawn)
labelValue: class 1
--
compound: CCC(C)C(=O)c1c(O)c(C)c2oc3c(C)c(O)c(C(=O)C(C)CC)c(O)c3c2c1O (stereo not drawn)
labelValue: class 1

Input COc1ccc2c(c1)OCC(Cc1ccc(OC)c(OC)c1)C2=O (stereo not drawn) ; condition: normalized growth strictly below 1. Does it hold?
class 1
